Entries annotated with measured median fluorescence intensity, fold over isotype control
biological target: SARS-CoV-2 full length spike protein, V367F mutant, expressed on the surface of CHO cells (SARS-CoV-2, UniProt P0DTC2 14-1273)
Enter your answer as a number in fold over isotype; do not include the unit.

Below, each entry is followed by its recorded median fluorescence intensity, fold over isotype control result.
antibody 318 (antibody, V domains shown) VH: QVQLVESGGGVVPPGRSLSLPCAASGFSFSAYAMHWLRQAPGKGLEWVAVISYDGTVKYVADSVRGRFTISRDNSNNTLYLQMTSLRSDDTAVYYCARDLGALAAAPTVYFVHWGQGTLVTVSS VL: SYVLTQPPSVSVAPGKTATITCAGEDIGRKSVHWYQQKPGQAPVLVIFYYSDRPSGIPDRFSGSVSGNTATLTIGRVEAGDEADYFCQVWDRTTNHVIFGGGTKVTVL	40.3
antibody 355 (antibody, V domains shown) VH: QVHLVESGGGVVQPGRSLRLSCAASGFTFSSFPMHWVRQAPGKGLEWVAVISYDGGDEHYTDSVEGRFTISRDNSLNTLYLQMSSLRLEDTAVYYCARDRYDSSGYYYVSDYWGQGTLITVSS VL: SYELTQPPSVSVSPGQTARISCSGDALPKQYAYWYQQKPGQAPVLVIYKDSERPSGIPERFSGSSSGTTVTLTISGVQAEDEADYYCQSADSRGTDPWVFGGGTKLTVL	8.08
antibody 356 (antibody, V domains shown) VH: QVQLVQSGAEVKKPGASVKVSCKASGYTFTSYGISWVRQAPGQGLEWMGWISAYHGNTNYAQKLQGRVTMTTDTSTSTAYMELRSLRSDDTAVYYCARVGLWWLGHADAFDIWGQGTMVTVSS VL: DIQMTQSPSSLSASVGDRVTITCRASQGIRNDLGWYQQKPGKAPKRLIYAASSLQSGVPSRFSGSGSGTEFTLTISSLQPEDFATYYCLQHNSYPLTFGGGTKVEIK	60.4

GET /value?item= antibody 330 (antibody, V domains shown) VH: QVQLVESGGGVVQPGRSLRLSCAASGFTFSSYAMHWVRQAPGKGLEWVAVISYDGSNKYYADSVKGRFTISRDNSKNTLYLQMNSLRAEDTAVYYCARDFQYYDFWSGYLTVSSPTSYYGMDVWGQGTTVTVSS VL: NFMLTQPHSVSESPGKTVTISCTGSSGSIASNYVQWYQQRPGSAPTTVIYEDNQRPSGVPDRFSGSIDSSSNSASLTISGLKTEDEADYYCQSYDSSNVVFGGGTKLTVL &field=median fluorescence intensity, fold over isotype control returns 22.4

GET /value?item= antibody 358 (antibody, V domains shown) VH: QVQLVESGGGVVQPGRSLRLSCAASGFNLNSYAMHWVRQASGKGLEWVSLMSYDGSIKYYADSVKGRFTVSGDNSRNTLFLQMNSLRPDDSALYYCVRGGVSGPNSFDLWGQGTTVTVSS VL: DVVMTQSPLSLPVTLGQPASISCRSSQSLVYSDGSTYVNWFQQRPGQSPRRLIYKVSNRDSGVPDRFSGSGSGTDFALKISRVEAEDVGVYYCMQGTHWPVTFGQGTKVEIK &field=median fluorescence intensity, fold over isotype control returns 38.4

GET /value?item= antibody 357 (antibody, V domains shown) VH: QVQLVQSGAEVKKPGSSVKVSCKASGGTFSSYAISWVRQAPGQGLEWMGRIIPILGIANYAQKFQGRVTITADKSTSTAYMELSSLRSEDTAVYYCARGPIAVAGIGPWFDPWGQGTLVTVSS VL: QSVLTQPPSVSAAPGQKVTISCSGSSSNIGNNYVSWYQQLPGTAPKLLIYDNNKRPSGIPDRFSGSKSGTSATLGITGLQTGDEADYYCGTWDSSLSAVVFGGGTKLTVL &field=median fluorescence intensity, fold over isotype control returns 28

GET /value?item= antibody 338 (antibody, V domains shown) VH: QVQLQESGPGLVKPSETLSLTCAVSGYSISSDYYWGWIRQPPGKGLEWIGSIYHSGSTYYNPSLKSRVTISIDTSKNQFSLKLSSVTAADTAVYYCARDPGNYDILTGIFDYWGQGTLVTVSS VL: QSALTQPASVSGSPGQSITISCTGTSSDVGVYNYVSWYQQHPGKAPKLMIYDVTNRPSGVSNRFSGSKSGNTASLTISGLQAEDEADYYCSSYTSSSTLAVYVFGTGTKVTVL &field=median fluorescence intensity, fold over isotype control returns 33.2

GET /value?item= antibody 311 (antibody, V domains shown) VH: QVQLQESGPGLVKPSETLSLTCTVSGYSISSGYYWGWIRQPPGKGLEWIGSIYHSGSTYYNPSLKSRVTISVDTSKNQFSLKLSSVTAADTAVYYCAREETLGSSWYESYIDYWGQGTLVTVSS VL: SYVLTQPPSVSVAPGKTARITCGGNNIGSKSVHWYQQKPGQAPVLVIYYDSDRPSGIPERFSGSNSGNTATLTISRVEAGDEADYYCQVWDSSSDHPRVFGGGTKLTVL &field=median fluorescence intensity, fold over isotype control returns 29.6
